# Test system: HCC-2998 colon
# test.details: NCI tumour cell line growth inhibition, 48 h
measurement.kind: TGI

Worked cases, answers included:
>>> print(df.to_string())
                                   molecule  observed
0  CC(=O)C1=C(C)N(c2ccccc2)C2(O)C3=C(C(=O)c4ccccc4C3=O)C(O)=CC12Cl (stereo unspecified)   25.9 µM
1  CC(C)(C)OC(=O)NCCCCCCCCCn1c2c(c3ccccc3c1=O)C(=O)c1ccccc1-2  > 100 µM
2          C(=N\NC1=NCCCCN1)/c1ccc2ccccc2c1   30.3 µM
3                          COCN1COCN(C)C1=O  > 100 µM
4              N.N.N.N.N#N.N#N.[Cl-].[Os+6]  > 100 µM

Continue with the next molecule.
Task item: Return TGI (reported value) for this molecule: S=C1SCC2CCCN12 (stereo unspecified)
Reply: > 100 µM

* * *

# System: HS 578T breast
# test.details: NCI tumour cell line growth inhibition, 48 h
measurement.kind: log10(TGI) (log10 of the value in µM)
For clarity, the numbers are log10 values of TGI expressed in µM.

Some compounds with known log10(TGI) results, for comparison:
compound	experimental.system	observed
O=C(Nc1cc(Cl)c(I)c(Cl)c1)C(F)(F)F	HS 578T breast	1.88
COc1ccc2[nH]c3ccc4cc[n+](CCN5CCC(C6CCN(CC[n+]7ccc8ccc9[nH]c%10ccc(OC)cc%10c9c8c7)CC6)CC5)cc4c3c2c1	HS 578T breast	1.70
COc1ccc(-c2cn(C)c3c2-n2cccc2C3=O)cc1O	HS 578T breast	0.59
O=C(O)c1ccc2c(O)c(O)ccc2c1	HS 578T breast	1.85
O=C(CCN1CCCC1)Nc1ccc2c(Nc3ccc(F)cc3)c3ccccc3nc2c1	HS 578T breast	0.66

// each compound listed below needs its log10(TGI)
1. CN[C@@H](C)C(=O)N[C@H](C(=O)N1CCC[C@H]1c1nc(C(=O)c2ccc(F)cc2)cs1)C1CCCCC1
2. CC(NCCN(C)C)C1CCC2C3CCc4cc(O)ccc4C3CCC12C (centres undefined)
3. COc1cc2c(cc1OC)C(CCN)=NCC2
4. C=C1C(=O)OC2CC1C(OC(=O)/C=C/c1ccccc1)C/C(C)=C/CC/C(C)=C/CCC2(C)O (centres undefined)

Reply:
1. 1.87
2. 1.26
3. 1.78
4. 0.77

Give me log10(TGI) for each of these compounds, listed below.
1. CCO/N=C\c1ccc2oc(-c3ccccc3)cc(=O)c2c1
2. CC(C)(C)OC(=O)N(CCCCN(CCCn1c2c(c3ccccc3c1=O)C(=O)c1ccccc1-2)C(=O)OC(C)(C)C)CCCn1c2c(c3ccccc3c1=O)C(=O)c1ccccc1-2
3. COc1ccc2[nH]c3c(C)c4c(c(C)c3c2c1)CN(C)C=C4
4. CN(C)Cc1ccc(NC(=O)c2cncc(C#Cc3cnc(N)c4ncccc34)c2)cc1C(F)(F)F

Reply:
1.63
1.78
0.17
0.49

* * *

I'd be grateful if you could share measured TGI for these entries.
# Test system: NCI/ADR-RES ovarian
# test.details: NCI tumour cell line growth inhibition, 48 h

Here is how some compounds turned out for TGI.
compound	observed
Nc1cc(OCC2CCCCC2)nc(N)n1	> 100 µM
COc1ccc(C2CC(c3sc(Nc4ccc(C)cc4)nc3C)=NN2)cc1 (stereo not given)	32.4 µM
C=C1C(=O)OC2CC1C(OC(=O)/C=C/c1ccccc1)C/C(C)=C/CC/C(C)=C/CCC2(C)O (stereo not given)	9.4 µM
CC(C)(C)OC(=O)NCCCCCCCCCn1c2c(c3ccccc3c1=O)C(=O)c1ccccc1-2	> 100 µM

Give TGI for each listed item.
1. COc1ccc2[nH]c3c(C)c4c(c(C)c3c2c1)CN(C)C=C4
2. O=C(O)CCC(O)=C1S(=O)(=O)OCCOS1(=O)=O
3. CCC/C=C/C=C/C(=O)OC1/C(=C/C(=O)OC)CC2CC(C(C)O)OC(=O)CC(O)CC3CC(OC(C)=O)C(C)(C)C(O)(CC4C/C(=C/C(=O)OC)CC(/C=C/C(C)(C)C1(O)O2)O4)O3 (stereo not given)
4. CNc1c2ccccc2nc2occ(Cl)c12

Reply:
1: > 100 µM; 2: > 100 µM; 3: > 12.5 µM; 4: > 100 µM

# batch size: 2; output TGI per entry
1. COc1ccc(C2=Nn3c(nnc3-c3ccc(F)c(Cl)c3)SC2)cc1
2. Cc1cn2c(/C=N/N=C(N)N)c(-c3cc([N+](=O)[O-])c(Cl)cc3Cl)nc2s1

Reply:
["> 100 µM", "> 100 µM"]
